B1: TPPP (parent)
chain: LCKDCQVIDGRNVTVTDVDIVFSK

variants of: B1; assay: protein stability index of a GFP-peptide fusion (GPS, HEK-293T) (PSI 1-6); higher = more stable; conditions: c terminus: a fixed tail appended;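 note: lentivirally expressed fusions sorted by FACS into six bins by GFP to DsRed ratio, PSI derived from sequencing read proportions per bin multiplied by bin number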
MEASUREMENT NAME: protein stability index
Please give the numeric answer without any surrounding text.

Below, 3 variants whose answers are already recorded.
• I8A = 2.84
• R11I = 1.68
• S23T = 2.23

The value of protein stability index measured for the variant V13H turned out to be 2.32

The value of protein stability index measured for the variant D19H turned out to be 2.97

The value of protein stability index measured for the variant D4P turned out to be 2.25

The value of protein stability index measured for the variant T16S turned out to be 2.92

The value of protein stability index measured for the variant V18F turned out to be 2.54

The value of protein stability index measured for the variant F22E turned out to be 4.25

The value of protein stability index measured for the variant V15H turned out to be 2.92

The value of protein stability index measured for the variant D9C turned out to be 2.05

The value of protein stability index measured for the variant D9T turned out to be 2.99
